# System: KA receptors
# protocol: 3H-KA binding to KA receptors in synaptic plasma membranes
# Set-up: species or system rat
# test-settings: diacid 100 μM; % of control binding ± s.d.; corrected for nonspecific binding
Item-by-item account of ^3 H-KA binding to KA receptors, % of Control

>>> meas_value("O=C(O)[C@@H]1CN[C@H](C(=O)O)C1 [Diacid 4, cis-4-Carboxy-L-proline]")
"100 ± 12 % of Control"
>>> meas_value("O=C(O)[C@@H]1CN[C@@H](C(=O)O)C1 [Diacid 11, trans-4-Carboxy-D-proline]")
"92 ± 6 % of Control"
>>> meas_value("O=C(O)[C@H]1CN[C@@H](C(=O)O)C1 [Diacid 14, cis-4-Carboxy-D-proline]")
"101 ± 6 % of Control"

# evaluate next
Query: Field request: ^3 H-KA binding to KA receptors, % of Control | item: O=C(O)[C@H]1CN[C@H](C(=O)O)C1 [Diacid 7, trans-4-Carboxy-L-proline]
Result: 102 ± 10 % of Control

###

# Tested on: NMDA receptors
# protocol: 3H-L-glutamate binding to NMDA receptors in synaptic plasma membranes
# Set-up: species or system rat
# test-settings: diacid 100 μM; % of control binding ± s.d.; corrected for nonspecific binding
Item-by-item account of ^3 H-L-GLU binding to NMDA receptors, % of Control

>>> meas_value("O=C(O)[C@@H]1CN[C@H](C(=O)O)C1 [Diacid 4, cis-4-Carboxy-L-proline]")
"89 ± 13 % of Control"
>>> meas_value("O=C(O)[C@@H]1CN[C@@H](C(=O)O)C1 [Diacid 11, trans-4-Carboxy-D-proline]")
"95 ± 12 % of Control"
>>> meas_value("O=C(O)[C@H]1CN[C@@H](C(=O)O)C1 [Diacid 14, cis-4-Carboxy-D-proline]")
"38 ± 12 % of Control"

# evaluate next
Query: Field request: ^3 H-L-GLU binding to NMDA receptors, % of Control | item: O=C(O)[C@H]1CN[C@H](C(=O)O)C1 [Diacid 7, trans-4-Carboxy-L-proline]
Result: 87 ± 10 % of Control

###

# Tested on: QA receptors
# protocol: 3H-AMPA binding to QA receptors in synaptic plasma membranes
# Design: species or system rat
# test-settings: diacid 100 μM; % of control binding ± s.d.; corrected for nonspecific binding
quantity-name: ^3 H-AMPA binding to QA receptors, % of Control

Worked examples follow.
>>> meas_value("O=C(O)[C@@H]1CN[C@@H](C(=O)O)C1 [Diacid 11, trans-4-Carboxy-D-proline]")
"108 ± 11 % of Control"
>>> meas_value("O=C(O)[C@@H]1CN[C@H](C(=O)O)C1 [Diacid 4, cis-4-Carboxy-L-proline]")
"102 ± 12 % of Control"
>>> meas_value("O=C(O)[C@H]1CN[C@@H](C(=O)O)C1 [Diacid 14, cis-4-Carboxy-D-proline]")
"110 ± 9 % of Control"

Query: ^3 H-AMPA binding to QA receptors, % of Control of O=C(O)[C@H]1CN[C@H](C(=O)O)C1 [Diacid 7, trans-4-Carboxy-L-proline] on QA receptors?
Result: 109 ± 13 % of Control
